The measured values listed here are drawn from the supplement of paper PMC9170038.

# System: MS2 coat protein
# Assay remarks: apparent KD of MS2 coat protein, switch ON state; designed switch direction (-1 OFF switch, 1 ON switch): 1; higher = weaker reporter binding
# Condition info: FMN input: 0 or 200 uM; Eterna round: R93 (includes R88 designs)
Each entry below carries its reported apparent KD of MS2 coat protein.

>  <Sequence record>
AAAAUACAUGAGGAUCACCCAUGUGAGUCGAACGCAGGAUAUGCCCGUUGAAAAGGGCGGGCAGAAGGGUGCCGAA [SameState1-IV]

>  <apparent KD of MS2 coat protein>
34.4 nM

$$$$
>  <Sequence record>
AUAGACAUAGUUCAGGAUAUGGUAAUAGUCACAUGAGGAUCACCCAUGUGCAUUUAUAUGCGCGAUCAGAAGGGAGGUAGAUAUA [Mat - Same state - Malcolm Mod - D117]

>  <apparent KD of MS2 coat protein>
17.7 nM

$$$$
>  <Sequence record>
GGAAGACAUGAGGAUCACCCAUGUGGGAAUAUGGGAGGAUAUACAAAGACGAGAGUCAGAGUAGAAGGCCUAGGAC [salish99-ss1-102]

>  <apparent KD of MS2 coat protein>
32.8 nM

$$$$

According to the records, this sequence AAGAAACAUGAGGAUCACCCAUGUGAUAAUAUGGGAGGAUAUACGAAGACGAAAGACGAAGUAGAAGGCCUAAGAA [Garnet 46] displays apparent KD of MS2 coat protein of 45.3 nM

Lab note: AACAACAAUAUGAAGGAUAUCCACAACAAGACAUGAGGAUCACCCAUGUAAACAAAGAACAUACAGGAGAAGGUCAAGGGUGAAA [JR_SS002_Sub1203] gave apparent KD of MS2 coat protein of 56.2 nM

Measured apparent KD of MS2 coat protein, CGCUCACAUGAGGAUCACCCAUGUCCUAGGAGGUCAGGAUAUAGCUCGGAUGCGUUGAGGCUAGAAGGGACAGGUG [JR_SS001_Sub606] : 78.6 nM

Noted for AGGAAACAUGAGGAUCACCCAUGUAAAAAUAUGGGAGGAUAUACAAACAAGAAAGUCAAAGUAGAAGGCCUAAAAG [Garnet 6] : its apparent KD of MS2 coat protein reads 63.7 nM

What the record says about AAAAAACAUGAGGAUCACCCAUGUAAAAAAAACACAGGAUAUCCAAAAAAAAAAAAAAAAGGAGAAGGGUGAAAAA [Nob - Jieux - Same State 1] : apparent KD of MS2 coat protein is 22 nM

Summary for this sequence, AGGAAACAUGAGGAUCACCCAUGUAAAAAAUAGGGAGGAUAUGGAAACACGAAAGUGAAACCAGAAGGCUCAAAAA [77%, Mat - Mod of Eli, 23] : apparent KD of MS2 coat protein is 13.8 nM

The value of apparent KD of MS2 coat protein measured for the sequence AAAAGACAUGAGGAUCACCCAUGUCAAGACGUAGGAGGAUAUGUCUUGAAAAAAGACUUGACAGAAGGCCUGUGUC [SS1 - 55] turned out to be 14.9 nM

Kindly note the recorded apparent KD of MS2 coat protein for GAAAAACAUGAGGAUCACCCAUGUAAGAUAAACACAGGAUAUGCGAAAAUAAACAAAGAAGCAGAAGGGUGAAGAA [Mat - Same State 1 - Tesla mod - 72] , which is 23 nM

For record AACAAACAUGAGGAUCACCCAUGUCAAACAUACCAAGGAUAUGGGAGACGAGACUCGUCACCAGAAGGUGGAAAUU [Maatce] the listed apparent KD of MS2 coat protein is 106 nM

Per the records, this sequence ( AAAAAACAUGAGGAUCACCCAUGUCGAAAGACAUGAGGAUAUGUACAGACUUCGGUCUGUACAGAAGGCAUGUAAA [SS1 - 1016] ) has apparent KD of MS2 coat protein equal to 104 nM

---

# System: K4 kissing-loop RNA reporter
# Assay remarks: apparent KD of K4 kissing-loop reporter; higher = weaker reporter binding
# Condition info: Eterna round: R107; input ligand: FMN 200 uM
Overview of recorded apparent KD of K4 kissing-loop reporter for various sequences
Include the unit right after the number.

Recorded results for 2 sequences are shown here.
>  <Sequence record>
GUGCAGUGAUGUUGCACGAGGAAAGACGAUACCAGCCGUAAAUAAGGCCCUUGGCAGCGUAGGCUAGCAUAAAGUACGCUAGUCC [Enarines]

>  <apparent KD of K4 kissing-loop reporter>
110 nM

$$$$
>  <Sequence record>
CUUGUACAAGUGAUGUUUGUUAUAUCCGAAGGAGCGUCGUAAUAGACAGGUAGGUCGCGGAGUAAGAUAGUUUUUUUAAUAUCAU [JR_Nu_SSArginiA_Sub029]

>  <apparent KD of K4 kissing-loop reporter>
435 nM

$$$$

Briefly, apparent KD of K4 kissing-loop reporter measured for GCGUGCAAGUCAUGAUGCCCUAUCAGGACUAAGGAUAUAGCGUGACCUAGAAGGUAGCUAGUGAUGUUGGCUGACAUGCUACUGC [theeternabot_exclusion_KL_FMN_A_49] : 482 nM

Entry UUUGGAAGCGGUGUUGAUUAGGGAGCGGAAGGAGCGCCGAUUAUGGCAGGUAGGUCGCCGGAAUGUAGUGAUGUUGCAUAGAGGU [ExArgA.X] — recorded apparent KD of K4 kissing-loop reporter = 185 nM

response.value for UUAGAGGCCCAGUGAUGUUGGGUGGUUGGGCGAGGACCGGUACGGCCGCCACUCGCCGCGGAACUAUCGGAAUCUCGCUCGGCUA [Aninxearqu] (field: apparent KD of K4 kissing-loop reporter) = 277 nM

For GGAUCCACCAGUGAUGUUGGAGAAAACUUCAAGGAUAUGACGAAAGUCAGAAGGUGGUAGACUGGUCAAAGUCCGGUCGGAUCCA [FmnA10 U29+U66] the sequence record lists apparent KD of K4 kissing-loop reporter as 658 nM

---

# Tested on: K4 kissing-loop RNA reporter;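 further: bound reporter read as fluorescence of individual clusters on recovered sequencing chips by microscopy, with normalized cluster intensities fitted with a binding model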
# Assay remarks: apparent KD of K4 kissing-loop reporter; higher = weaker reporter binding
# Condition info: Eterna round: R107; input ligand: arginine 13.2 mM
Result type: apparent KD of K4 kissing-loop reporter (nM)
Just the number in nM, nothing appended.

Use the examples below as a reference point.
>  <Sequence record>
GCCGUACGCAUGGAUACCAGCAAGUAUAUAUGCUAGUGAUGUUAGCGCUAUGCGAUGCGGUGCCCUUGGCAGCCAUGCGUACGGC

>  <apparent KD of K4 kissing-loop reporter [nM]>
85.2

$$$$
>  <Sequence record>
AAAUAGAUCAGUCAACCAGUGAUGUUGGAAGGAGCGUGCGAAAGCACAGGUAGGUCGCCAGAAUAAAAGUGGCUGAUCAAAAUAA

>  <apparent KD of K4 kissing-loop reporter [nM]>
384

$$$$
>  <Sequence record>
CACCGCAACUGAAGGAGCGCGCCAGUGAUGUUGGACGGCUUUGUCAAGGAAACUGCACCGGUGCAGGUAGGUCGCAGUUCGCGGC [Ededisa]

>  <apparent KD of K4 kissing-loop reporter [nM]>
256

$$$$
>  <Sequence record>
GGAUAGGACAGAGGAUAUGGUAGUGAUGUUACCAAACUGGUUACUAAUGUCAGAAAACUGGCAAAUCCAGAAGGCUGUCCUAUCG [KL-XFMN-B13]

>  <apparent KD of K4 kissing-loop reporter [nM]>
76.3

$$$$
>  <Sequence record>
AAGAGGUAGGCGGCCGCCACUAGUUGUGAACACAUACGAGCCAGUGAUGUUGGUAUUGUGGGCGGUAGGACCGGGCCUACCUGAA [Exclusion - Tryptophan B (Freestyle 19)]

>  <apparent KD of K4 kissing-loop reporter [nM]>
336

$$$$

// field: apparent KD of K4 kissing-loop reporter; key: AAAAUAAAUCAGUGAUGUUGGUGUCCAGAUACCAGCGACGAAAGUCGCCCUUGGCAGCUGUGGACGUACAAAAUAAGUACGUCCU [MatMod 22 - Jieux - Same State - Theophylline A] ; value = 316

Entry UGUCAUUGGUCGGCCGCCACUUCAUAAAGAGUGAUGUUCUGAAAGACGGAUCGAAAGAUCUGUCGAAGGACCGGGACCGAUGACU [FiskerMod 1 - Jieux - Same State - Tryptophan B] , apparent KD of K4 kissing-loop reporter reported as 1200

The sequence listed as AUGGCACGACUUGCCCACAAUGUCUAUGCCCGAGGACCGGUACGGCCGCCACUCGGAUGCCGUGUCUUAUUAGUGAUGUUGAUAC [theeternabot_sameState_KL_Trp_A_4] has a reported apparent KD of K4 kissing-loop reporter of 204

Entry under test: AAAAUAAUCCAGUGAUGUUGGUAUCCAGAUACCAGCCACGAAAGUGGCCCUUGGCAGCUGUAGGACGUACAAAUAAGUACGUCCA [#OpenEnded 7 #StaticStem #K4Early] . Its apparent KD of K4 kissing-loop reporter was 175

For this sequence ( AUAUUAAGCGGAAGGAGCGGCUGAACCAGUGAUGUUGGUUAAUCCAAGUGAUGUUGGAAAAGCCAGGUAGGUCGCCGCUAUAUAU [Same State Arg B GF 1] ), measured apparent KD of K4 kissing-loop reporter is 424

The sequence listed as AAACGCUGGUGAAUAACACUAGCGAAUUCGCGAGGACCGGUACGGCCGCCACUCGCUAACUGCGAGUGAUGUUCGAUAAUAAAAU [Mat - Mod of OpenEnded 3 - D2] has a reported apparent KD of K4 kissing-loop reporter of 107

Item: AUUCGCUCCACUGAUACCAGUCAUCGAGCAAGAUGCUAAGCCAGUGAUGUUGGCAUGAAUGACCCUUGGCAGCAGUACACUAAGG [Theo B SS t7] | apparent KD of K4 kissing-loop reporter: 106
